Where these numbers come from: PubChem BioAssay (NCI)

tested on: HOP-92 NSCLC; assay: NCI tumour cell line growth inhibition, 48 h; in the data active means GI50 below about 0.43 µM; inactive means the rest
Hi there, use one of these labels in your reply, thanks! active, inactive

Q: Assay result, entry "O=C(Nc1cccc(C(F)(F)F)c1)Nc1ccc(OCc2nnc(-c3ccccc3)o2)c(F)c1" — outcome?
Result: inactive

Q: Assay outcome for "Clc1ccc(N=CNc2ccc(-c3nc4ccccc4[nH]3)cc2)cc1" : what was it?
Result: inactive

Q: In this assay, the call recorded for COc1ccc(C[C@H](N)C(=O)N[C@@H]2[C@@H](CO)OC(n3cnc4c(N(C)C)ncnc43)[C@@H]2O)cc1 (some centres undefined) was what?
Result: active

---

Would you kindly list TGI for each of these compounds?
test system: OVCAR-8 ovarian; assay: NCI tumour cell line growth inhibition, 48 h

// solved cases for TGI follow
structure-smiles: Cn1ncc2c(c1=O)Nc1ccccc1S2(=O)=O
TGI: > 100 µM
--
structure-smiles: CN1Cc2c(ccc3c2OCO3)[C@@H]2[C@H](O)Cc3cc4c(cc3[C@@H]21)OCO4
TGI: > 51.5 µM
--
structure-smiles: Clc1ccc(N=CNc2ccc(-c3nc4ccccc4[nH]3)cc2)cc1
TGI: > 100 µM

Quick batch: TGI for everything below.
1. Nc1nc2c(c(-c3ccc(F)cc3)n1)COC/C2=C\c1ccc(F)cc1
2. CCOC(=O)NC/C=C/CO
3. COc1cc(-c2nn(-c3cccc(NC(=O)c4cccc(C(F)(F)F)c4)c3)cc2-c2ccncc2)ccc1Cl

Result:
["> 100 µM", "> 100 µM", "> 50 µM"]

---

system: HL-60(TB) leukemia; test: NCI tumour cell line growth inhibition, 48 h
Give TGI for every item shown.

compound: O=C(Nc1cccc(C(F)(F)F)c1)Nc1cc(S(=O)(=O)NC2CC2)ccc1-c1ccsc1
TGI: 8.03 µM
//
compound: CCOC(=O)c1c(/C=N\Nc2ccccc2)nc2ccccc2c1-c1ccccc1
TGI: 50.1 µM
//
compound: Cc1c(C(=O)C/C(=N/NC(=O)CC#N)C(N)=O)[n+](=O)c2ccccc2n1[O-]
TGI: 69.4 µM
//
compound: CCc1c[nH]c2ncnc(N3CC[C@](N)(CNC(=O)c4ccc(F)cc4F)C3)c12
TGI: > 100 µM
//
compound: Clc1cc2ncn(C3CCCO3)c2cc1Cl (centres undefined)
TGI: > 100 µM

Report TGI for every entry below.
1. O=c1cccccc1[O-].O=c1cccccc1[O-].O=c1cccccc1[O-].[Dy+3]
2. Cc1ccc(S(=O)(=O)NCc2cccc([N+](=O)[O-])c2)cc1
3. CC(C)=NO.CC(C)=NO.CC(C)=NO.CC(C)=NO.[Ti]
4. CCOP(=O)(OCC)/C(C#N)=C(\C)c1ccco1
5. COc1ccc(C[C@H](N)C(=O)N[C@@H]2[C@@H](CO)OC(n3cnc4c(N(C)C)ncnc43)[C@@H]2O)cc1 (some centres undefined)
6. O=P1(C(O)c2ccccc2)N(Cc2ccccc2)[C@@H]2CCCC[C@H]2N1Cc1ccccc1 (some centres undefined)
7. O=C(Cn1c(-c2ccccc2)cc2ccccc21)N1CCOCC1
8. CNc1nc(OC)c2c(n1)[n+](C)cn2C

Result:
54.3 µM
90.3 µM
> 100 µM
> 10 µM
1.7 µM
47.2 µM
> 100 µM
> 100 µM

Hey, can you go through the list below and give me TGI for every item?
1. CCCCCCCCCCCC1=C(O)C(=O)C=C(O)C1=O
2. COC(=O)/C(=C/c1ccc(OC)cc1)c1cc(OC)c(OC)c(OC)c1
3. Brc1ccc2c(c1)-c1ccccc1C1=NCCN12
4. Nc1ccc(N)c2c1C(=O)c1cccc([N+](=O)[O-])c1C2=O
5. CCOC(=O)C1C(=O)C(=O)N2CCc3c([nH]c4ccccc34)C12 (centres undefined)
6. COc1cccc(OC)c1/C=N\N1C(=O)c2ccccc2C1=O

Result:
12.6 µM
3.06 µM
5.65 µM
> 41.1 µM
> 100 µM
79.8 µM

Below are 5 compounds. Give each one its TGI.
1. Cc1cc2c(SCc3ccccc3Cl)nc(N)nc2nc1C
2. CN(C)C(=O)c1cc2cnc(Nc3ccc(N4CCNCC4)cn3)nc2n1C1CCCC1
3. C=CCCC1(CCP(=O)(c2ccccc2)c2ccccc2)OCCO1
4. CC(=O)CC(=O)N1CCOC1=O
5. CCC(=C(c1ccc(OCCN(CC)CC)cc1)c1ccc(OCCN(CC)CC)cc1)c1ccc(Cl)cc1

Result:
["> 100 µM", "28.1 µM", "> 100 µM", "> 10 µM", "1.32 µM"]

---

tested on: U251 CNS; assay: NCI tumour cell line growth inhibition, 48 h
Answer each item with its documented TGI.

Past entries and their recorded results:
structure-smiles: O=C(CO[N+](=O)[O-])OCC(=O)c1ccccc1
TGI: > 100 µM

structure-smiles: CCOC(=O)NC/C=C/CO
TGI: > 100 µM

structure-smiles: CC(=O)CC(=O)N1CCOC1=O
TGI: > 10 µM

structure-smiles: N#Cc1c(N)n(-c2nc3ccccc3s2)c(=O)c2cc([N+](=O)[O-])ccc12
TGI: > 100 µM

structure-smiles: Cc1[nH]n(C(=O)c2ccc(Cl)cc2)c(=O)c1/C=C1\C(O)=CC(=O)c2ccccc21
TGI: > 100 µM

Could you report TGI for every entry in the following list?
1. Cc1c(C(=O)C/C(=N/NC(=O)CC#N)C(N)=O)[n+](=O)c2ccccc2n1[O-]
2. CN1C/C(=C\c2ccco2)c2nc(N)nc(-c3ccco3)c2C1
3. CCOC(=O)C1=C(O)c2c(OC)ccc(OC)c2C(=O)C1=O
4. CC(=O)Oc1c(OC(C)C)cc(=O)n2ccsc12

Result:
1: > 100 µM; 2: > 100 µM; 3: > 100 µM; 4: > 100 µM

---

system: T-47D breast; experiment: NCI tumour cell line growth inhibition, 48 h
For each record, write down the corresponding TGI.

Consider the following items and state reported TGI for each.
1. C(/Cc1ccc2c(c1)OCO2)=N\NC1=NCCCCN1
2. COC(=O)C(NC(=O)c1ccccc1)c1ccc(OC)c(I)c1 (configuration not stated)

Result:
1. > 100 µM
2. > 100 µM

Would you mind listing TGI for each of the following compounds?
1. CCc1n[nH]c(=O)n1-c1ccncc1
2. COc1cc(/C=C/C(=O)c2c(-c3ccc(Cl)cc3)nc3sc(C)nn23)cc(OC)c1OC
3. COc1cc(CC2C(=O)OCC2Cc2ccc(OC)c(OC)c2)ccc1O (configuration not stated)
4. O=C1C[C@@]23CCC4(CC2=CCC[C@H]3O1)OCCO4
5. Cc1ccc(C(=O)C2CC3(CCC2(O)c2ccc(C)cc2)CC(=O)Nc2ccccc2C3=O)cc1 (configuration not stated)
6. Cc1nnc(N)s/c1=N/O

Result:
["> 100 µM", "13.5 µM", "> 100 µM", "> 100 µM", "> 100 µM", "> 100 µM"]

---

Could you please report measured TGI for the items listed next?
test system: NCI-H226 lung; assay: NCI tumour cell line growth inhibition, 48 h

Worked cases, TGI given:
structure-smiles: Cc1cc2c(=O)cc(-c3ccncc3)oc2c(C(=O)O)c1C
readout-value: > 100 µM

structure-smiles: N=c1sc(N2CCOCC2)nn1CC(=O)c1ccccc1
readout-value: > 100 µM

structure-smiles: CCCNc1ncnc2c1cnn2C
readout-value: > 100 µM

structure-smiles: CCc1c[nH]c2ncnc(N3CC[C@](N)(CNC(=O)c4ccc(F)cc4F)C3)c12
readout-value: > 77.7 µM

Turning to the following compound.
Q: Give a short answer stating reported TGI for "COc1cccc2c(Nc3ccc(C(=O)NCCN4CCNCC4)cc3)cc(-c3ccccc3)nc12" .
Result: > 100 µM

---

system: NCI-H226 lung; assay: NCI tumour cell line growth inhibition, 48 h
Record form. Attribute: TGI. Fill in for each entry.

Some entries whose results are on file:
molecule: CCCCC(C)(C/C=C/[C@@H]1[C@@H](C(O)CCCCCC(=O)OC)C(=O)C[C@H]1O[Si](C)(C)C(C)(C)C)O[Si](C)(C)C (some centres undefined)
readout-value: > 100 µM
//
molecule: O=C1Cc2c([nH]c3c(Br)cccc23)-c2ccccc2N1
readout-value: > 100 µM
//
molecule: CNC(=O)N(C)C(=O)c1ccccc1C(=O)N(C)C(=O)NC
readout-value: > 10 µM

Moving on to another molecule below.
Q: Output measured TGI for this item: "Nc1cc(O)c2cc(N=Nc3ccc(N=Nc4ccc(N=Nc5ccc6cc(S(=O)(=O)O)cc(S(=O)(=O)O)c6c5)c5ccccc45)c4cc(S(=O)(=O)O)ccc34)c(S(=O)(=O)O)cc2c1"
Result: > 93.3 µM

---

system: OVCAR-4 ovarian; test: NCI tumour cell line growth inhibition, 48 h
quantity-measured: TGI

Worked examples follow.
compound: COC(=O)C1=C(C)C(=O)C2(CCCCCC2C(=O)OC)C1 (stereo not given)
measured-on: OVCAR-4 ovarian
quantity-measured: TGI
readout-value: > 100 µM
--
compound: O=C(/C=C/N1CCN(c2cccc(Cl)c2)CC1)c1ccc(Cl)cc1
measured-on: OVCAR-4 ovarian
quantity-measured: TGI
readout-value: > 100 µM

Field: TGI. Fill in for each record below.
1. CC(C)=C[C@@H]1C[C@H](C)[C@H]2CC[C@H](C)[C@H]3C(=O)C(O)=C(C)C(=O)[C@]123
2. CCOC(=O)N/N=C(/N)Cc1ccc(Cl)cc1

Result:
["> 100 µM", "> 100 µM"]

Consider the following items and state reported TGI for each.
1. O=C(CO[N+](=O)[O-])OCC(=O)c1ccccc1
2. N#Cc1c2c(c(Nc3ccc(Cl)cc3)n3c1nc1ccccc13)CCCC2
3. O=C1C(=O)c2c(ccc3ccccc23)-c2ccccc21
4. O=c1cccccc1[O-].O=c1cccccc1[O-].O=c1cccccc1[O-].[Dy+3]
5. Cc1c(-c2ccc(N3CCc4cccc(C(=O)Nc5nc6ccccc6s5)c4C3)nc2C(=O)O)cnn1CC12CC3CC(CC(C3)C1)C2
6. CN1Cc2c(ccc3c2OCO3)[C@@H]2[C@H](O)Cc3cc4c(cc3[C@@H]21)OCO4

Result:
> 100 µM
> 96.6 µM
2.5 µM
> 100 µM
33.2 µM
> 100 µM
